As shown below, each of these binders has a reported Artemin Binding Response (nm) value.
target or system: T1, MfArtemin-MMH (cynomolgous monkey (Macaca fascicularis))
T1 construct: also called mfARTN.mmh; mfARTN (A108-G22).mmh
T1 chain: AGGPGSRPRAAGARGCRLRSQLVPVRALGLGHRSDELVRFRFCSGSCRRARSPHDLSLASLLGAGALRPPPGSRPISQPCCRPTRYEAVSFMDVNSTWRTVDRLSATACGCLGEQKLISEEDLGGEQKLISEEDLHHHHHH
measurement protocol: BLI (Octet HTX), mAb captured on AHC tips, artemin at 7.5 nM, 25 C
Express it in nm; write the number only.

binder	Artemin Binding Response (nm)
H4H33331P (antibody, human IgG4 S228P, kappa, V domains shown, Fully human antibody (human variable and constant domains) from a VELOCIMMUNE mouse; also called Artemin mAb; anti-ARTN antibody) VH: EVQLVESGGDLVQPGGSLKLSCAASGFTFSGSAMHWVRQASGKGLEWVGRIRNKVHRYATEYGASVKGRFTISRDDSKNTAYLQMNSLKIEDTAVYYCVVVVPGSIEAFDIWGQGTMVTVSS VL: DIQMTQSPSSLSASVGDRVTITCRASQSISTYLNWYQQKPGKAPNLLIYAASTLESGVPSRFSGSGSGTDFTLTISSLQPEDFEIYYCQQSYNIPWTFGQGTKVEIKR	0.01
H4H33349P (antibody, human IgG4 S228P, kappa, V domains shown, Fully human antibody; also called Artemin mAb; anti-ARTN antibody) VH: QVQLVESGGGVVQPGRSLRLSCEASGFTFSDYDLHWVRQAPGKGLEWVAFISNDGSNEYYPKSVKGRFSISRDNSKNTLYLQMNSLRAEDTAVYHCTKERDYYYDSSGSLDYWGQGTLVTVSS VL: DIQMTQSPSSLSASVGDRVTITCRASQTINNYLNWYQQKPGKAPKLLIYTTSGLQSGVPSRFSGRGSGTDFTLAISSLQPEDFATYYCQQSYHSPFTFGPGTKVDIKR	0.04
H4H33336P (antibody, human IgG4 S228P, kappa, V domains shown, Fully human antibody; also called Artemin mAb; anti-ARTN antibody) VH: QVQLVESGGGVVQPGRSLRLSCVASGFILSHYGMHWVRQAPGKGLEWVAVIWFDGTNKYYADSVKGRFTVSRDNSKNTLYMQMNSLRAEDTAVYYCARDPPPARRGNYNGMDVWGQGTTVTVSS VL: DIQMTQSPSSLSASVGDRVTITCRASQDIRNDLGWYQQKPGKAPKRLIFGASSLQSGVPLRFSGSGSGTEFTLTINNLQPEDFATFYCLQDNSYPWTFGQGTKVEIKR	0.01

# evaluate next
Prompt line: Given the entry H4H33335P (antibody, human IgG4 S228P, kappa, V domains shown, Fully human antibody; also called Artemin mAb; anti-ARTN antibody) VH: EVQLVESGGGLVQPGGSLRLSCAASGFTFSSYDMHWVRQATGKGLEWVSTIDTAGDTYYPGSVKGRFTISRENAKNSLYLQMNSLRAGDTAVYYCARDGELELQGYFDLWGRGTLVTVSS VL: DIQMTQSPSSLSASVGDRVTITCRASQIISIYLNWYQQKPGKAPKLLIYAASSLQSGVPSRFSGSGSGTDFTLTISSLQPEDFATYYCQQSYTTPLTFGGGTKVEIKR , report its measured Artemin Binding Response (nm).
Response line: 0

Where do these numbers come from? They come from patent US20240352111A1.
